experimental target: Serine/threonine-protein kinase TBK1 (Homo sapiens);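 further: values are mean inhibition of TBK1, screened as part of the GSK published kinase inhibitor set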
cond: at 1 µM
Documented inhibition across a set of molecules
Write the value in % as a bare number.

Consider the reported inhibition for these molecules:
Nc1ncnc2occ(-c3ccc(NC(=O)Nc4cc(C(F)(F)F)cc(C(F)(F)F)c4)cc3)c12 = 3.1
Cc1ccc(C(=O)NC2CCCCC2)cc1-c1ccc(C(=O)NCC2CC2)cc1 = 3.86
COc1cccc(-n2ncc3c(N/N=C/c4cccc(F)c4)ncnc32)c1 = 5.66
O=C1Nc2ccc(C(=O)c3ccco3)cc2C1=Cc1cc(Cl)c(O)c(Cl)c1 = 40.7
Cc1nnc(-c2ccc(C)c(-c3ccc(C(=O)Nc4cccc(C#N)c4)cc3)c2)o1 = 5

Find the recorded inhibition belonging to CCCN1CCC(Oc2cc(Nc3nc(Nc4cccc(F)c4C(N)=O)c4cc[nH]c4n3)c(OC)cc2Cl)CC1 and report it.
2.35

Find the recorded inhibition belonging to Fc1cccc(COc2ccc(Nc3ncnc4cc(-c5ccc[nH]5)sc34)cc2Cl)c1 and report it.
3.65

Find the recorded inhibition belonging to Nc1ncnc2occ(-c3ccc(NC(=O)Nc4cccc(C(F)(F)F)c4)cc3)c12 and report it.
4.59

Find the recorded inhibition belonging to CCn1c(-c2nonc2N)nc2c(C#CC(C)(C)O)nc(OC[C@@H](N)c3ccccc3)cc21 and report it.
3.45

Find the recorded inhibition belonging to COc1cc2ncn(-c3cc(OCc4ccccc4Cl)c(C(N)=O)s3)c2cc1OC and report it.
28.7

Find the recorded inhibition belonging to Cc1cccc(-c2n[nH]cc2-c2ccc3ncccc3n2)n1 and report it.
-2.11

Find the recorded inhibition belonging to Fc1cccc(COc2ccc(Nc3ncnc4sc(-c5cccs5)cc34)cc2Cl)c1 and report it.
2.3
